Hey, just so you know, these numbers are from the supplement of paper PMC7877785.

Entries annotated with measured self-splicing fitness (ln)
assay: self-splicing fitness, log relative to wild type (ln ratio); higher = more splicing; Tetrahymena group I intron in knt gene, E. coli kanamycin selection, DiMSum; sequences stand for … in CUCUCU…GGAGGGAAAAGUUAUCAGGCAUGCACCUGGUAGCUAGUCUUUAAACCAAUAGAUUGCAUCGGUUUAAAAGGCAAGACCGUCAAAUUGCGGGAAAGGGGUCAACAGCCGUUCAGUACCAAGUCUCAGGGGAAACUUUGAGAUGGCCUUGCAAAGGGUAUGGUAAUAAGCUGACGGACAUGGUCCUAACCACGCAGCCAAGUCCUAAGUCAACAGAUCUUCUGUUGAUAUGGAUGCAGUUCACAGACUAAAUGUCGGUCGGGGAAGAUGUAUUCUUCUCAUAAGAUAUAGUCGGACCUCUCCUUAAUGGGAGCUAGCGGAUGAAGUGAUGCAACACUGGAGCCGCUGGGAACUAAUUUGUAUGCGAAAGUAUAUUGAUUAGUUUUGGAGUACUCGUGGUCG; details: 30 °C;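 further: selection with 25 µg/mL kanamycin versus none on LB agar overnight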

// solved cases for self-splicing fitness (ln) follow
{"primary.sequence": "AUGGAGCAAUAUUACGGCAU", "self-splicing fitness (ln)": -0.641}
{"primary.sequence": "CGACAGCAAUAUUACGACGA", "self-splicing fitness (ln)": -1.01}
{"primary.sequence": "GAGCAGCAAUAUUACGUGCU", "self-splicing fitness (ln)": -3.11}
{"primary.sequence": "UAGUAGCAAUAUUACGUAAC", "self-splicing fitness (ln)": -3.54}

[in] So what does the record say about self-splicing fitness (ln) for GGGCAGCAAUAUUACGCCUU ?
[out] -3.55

[in] So what does the record say about self-splicing fitness (ln) for GCAGAGCAAUAUUACGGUUA ?
[out] -2.95

[in] So what does the record say about self-splicing fitness (ln) for GCCUAGCAAUAUUACGUAGC ?
[out] -0.323
